Exercise: state measured Slope repl2 for each of the compounds provided.
target: WT PfMDH (Plasmodium falciparum, UniProt Q6VVP7); construct: The full-length WT PfMDH gene was cloned into pETM-13; made in house; host or cells: E. coli Rosetta 2 (DE3) pLysS; experiment: Activity screening of 4DT / 4-phenylthiazol-2-amine derivatives (oxidation of malate, absorbance at 340 nm); type: biochemical; conditions: 500 µM compound, linear regression slope of absorbance 340 nm vs time, replicate 2
Sequence (Q6VVP7 entry or part of it): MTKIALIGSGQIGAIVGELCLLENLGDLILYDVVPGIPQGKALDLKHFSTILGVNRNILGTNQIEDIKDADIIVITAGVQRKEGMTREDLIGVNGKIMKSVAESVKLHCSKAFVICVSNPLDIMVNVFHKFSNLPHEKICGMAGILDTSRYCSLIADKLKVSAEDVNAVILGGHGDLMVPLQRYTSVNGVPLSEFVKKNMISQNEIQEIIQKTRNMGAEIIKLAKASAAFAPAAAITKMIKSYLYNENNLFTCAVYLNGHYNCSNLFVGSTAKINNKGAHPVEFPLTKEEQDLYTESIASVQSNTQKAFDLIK
The answer should be a number; do not append a unit.

Request: Tell me the measured Slope repl2 of Nc1nc(-c2ccc(Cl)c(Cl)c2)cs1 , please.
Response: 0.007289

Request: Tell me the measured Slope repl2 of Nc1nc(-c2ccc(F)cc2)cs1 , please.
Response: 0.01582

Request: Tell me the measured Slope repl2 of CC(C)(C)OC(=O)CNC(=O)c1cc(-c2cccs2)on1 , please.
Response: 0.006583

###

target: WT PfMDH (Plasmodium falciparum, UniProt Q6VVP7); construct: The full-length WT PfMDH gene was cloned into pETM-13; made in house; host or cells: E. coli Rosetta 2 (DE3) pLysS; test: Activity screening of 4DT / 4-phenylthiazol-2-amine derivatives (oxidation of malate, absorbance at 340 nm); assay type: biochemical; details: 500 µM compound, linear regression slope of absorbance 340 nm vs time, replicate 2
Metric: Slope repl2
The answer should be a number; do not append a unit.

Request: Tell me the measured Slope repl2 of O=C(O)c1nc(-c2ccccc2)cs1 , please.
Response: 0.02324

Request: Tell me the measured Slope repl2 of Nc1nc(-c2ccc(F)c(F)c2)cs1 , please.
Response: 0.02071

Request: Tell me the measured Slope repl2 of Cc1c(CO)cnn1-c1ccccc1 , please.
Response: 0.02788

Request: Tell me the measured Slope repl2 of Nc1cc(-c2ccccc2)[nH]n1 , please.
Response: 0.01483

Request: Tell me the measured Slope repl2 of NCc1ccc(-c2csnn2)cc1 , please.
Response: 0.01654

Request: Tell me the measured Slope repl2 of Cc1ccc(-c2csc(N)n2)cc1C , please.
Response: 0.01659

Request: Tell me the measured Slope repl2 of O=C(O)c1cc(-c2cccs2)on1 , please.
Response: 0.019

###

biological target: WT PfMDH (Plasmodium falciparum); construct: The full-length WT PfMDH gene was cloned into pETM-13; made in house; host or cells: E. coli Rosetta 2 (DE3) pLysS; test: Activity screening of 4DT / 4-phenylthiazol-2-amine derivatives (oxidation of malate, absorbance at 340 nm); type: biochemical; conditions: 500 µM compound, Dunnett test details, positive control mean 100, n 2; read-out: Mean 2 (mean % enzymatic activity of treated group)
Exercise: state measured remaining activity at 500 µM for each of the molecules provided.
Just the number in %, nothing appended.

Request: Checklist item: remaining activity at 500 µM tested on WT PfMDH (Plasmodium falciparum), entry Cc1c(CO)cnn1-c1ccccc1 , value?
Response: 80

Request: Checklist item: remaining activity at 500 µM tested on WT PfMDH (Plasmodium falciparum), entry CC(C)(C)OC(=O)CNC(=O)c1cc(-c2cccs2)on1 , value?
Response: 21

Request: Checklist item: remaining activity at 500 µM tested on WT PfMDH (Plasmodium falciparum), entry Nc1nc(-c2ccc(F)c(F)c2)cs1 , value?
Response: 62

Request: Checklist item: remaining activity at 500 µM tested on WT PfMDH (Plasmodium falciparum), entry Cc1ccc(-c2csc(N)n2)cc1C , value?
Response: 52

Request: Checklist item: remaining activity at 500 µM tested on WT PfMDH (Plasmodium falciparum), entry Nc1cc(-c2ccccc2)[nH]n1 , value?
Response: 53

Request: Checklist item: remaining activity at 500 µM tested on WT PfMDH (Plasmodium falciparum), entry Nc1nc(-c2ccc(Cl)c(Cl)c2)cs1 , value?
Response: 24

Request: Checklist item: remaining activity at 500 µM tested on WT PfMDH (Plasmodium falciparum), entry NCc1ccc(-c2csnn2)cc1 , value?
Response: 65

Request: Checklist item: remaining activity at 500 µM tested on WT PfMDH (Plasmodium falciparum), entry O=C(O)c1nc(-c2ccccc2)cs1 , value?
Response: 65

Request: Checklist item: remaining activity at 500 µM tested on WT PfMDH (Plasmodium falciparum), entry Nc1nc(-c2ccc(F)cc2)cs1 , value?
Response: 51

Request: Checklist item: remaining activity at 500 µM tested on WT PfMDH (Plasmodium falciparum), entry O=C(O)c1cc(-c2cccs2)on1 , value?
Response: 60

###

Exercise: state measured remaining activity at 500 µM for each of the compounds provided.
target: WT PfMDH (Plasmodium falciparum, UniProt Q6VVP7); construct: The full-length WT PfMDH gene was cloned into pETM-13; made in house; host or cells: E. coli Rosetta 2 (DE3) pLysS; experiment: Activity screening of 4DT / 4-phenylthiazol-2-amine derivatives (oxidation of malate, absorbance at 340 nm); assay type: biochemical; settings: 500 µM compound, control 100%, replicate 2; read-out: % enzymatic activity repl2
Just the number in %, nothing appended.

Request: Tell me the measured remaining activity at 500 µM of O=C(O)c1nc(-c2ccccc2)cs1 [4a] , please.
Response: 66

Request: Tell me the measured remaining activity at 500 µM of Nc1cc(-c2ccccc2)[nH]n1 [5b] , please.
Response: 42

Request: Tell me the measured remaining activity at 500 µM of Nc1nc(-c2ccc(F)cc2)cs1 [compound 9a] , please.
Response: 45

###

Exercise: state measured remaining activity at 500 µM for each of the molecules provided.
molecular target: WT PfMDH (Plasmodium falciparum); construct: The full-length WT PfMDH gene was cloned into pETM-13; made in house; host or cells: E. coli Rosetta 2 (DE3) pLysS; test: Activity screening of 4DT / 4-phenylthiazol-2-amine derivatives (oxidation of malate, absorbance at 340 nm); assay type: biochemical; conditions: 500 µM compound, control 100%, replicate 1; read-out: % enzymatic activity repl1
Just the number in %, nothing appended.

Request: Tell me the measured remaining activity at 500 µM of CC(C)(C)OC(=O)CNC(=O)c1cc(-c2cccs2)on1 , please.
Response: 22

Request: Tell me the measured remaining activity at 500 µM of O=C(O)c1nc(-c2ccccc2)cs1 , please.
Response: 64

Request: Tell me the measured remaining activity at 500 µM of Nc1cc(-c2ccccc2)[nH]n1 , please.
Response: 63

Request: Tell me the measured remaining activity at 500 µM of O=C(O)c1cc(-c2cccs2)on1 , please.
Response: 65

Request: Tell me the measured remaining activity at 500 µM of Nc1nc(-c2ccc(Cl)c(Cl)c2)cs1 , please.
Response: 26

Request: Tell me the measured remaining activity at 500 µM of Cc1c(CO)cnn1-c1ccccc1 , please.
Response: 80

Request: Tell me the measured remaining activity at 500 µM of Cc1ccc(-c2csc(N)n2)cc1C , please.
Response: 56

Request: Tell me the measured remaining activity at 500 µM of Nc1nc(-c2ccc(F)cc2)cs1 , please.
Response: 57

Request: Tell me the measured remaining activity at 500 µM of Nc1nc(-c2ccc(F)c(F)c2)cs1 , please.
Response: 64

Request: Tell me the measured remaining activity at 500 µM of NCc1ccc(-c2csnn2)cc1 , please.
Response: 83

###

target: WT PfMDH (Plasmodium falciparum, UniProt Q6VVP7); construct: The full-length WT PfMDH gene was cloned into pETM-13; made in house; host or cells: E. coli Rosetta 2 (DE3) pLysS; assay: Activity screening of 4DT / 4-phenylthiazol-2-amine derivatives (oxidation of malate, absorbance at 340 nm); format: biochemical; settings: 500 µM compound, slope relative to control = 1, replicate 1
Exercise: state measured Slope normalized repl1 for each of the compounds provided.

Request: Tell me the measured Slope normalized repl1 of Nc1nc(-c2ccc(F)c(F)c2)cs1 , please.
Response: 0.6412

Request: Tell me the measured Slope normalized repl1 of Cc1c(CO)cnn1-c1ccccc1 , please.
Response: 0.7992

Request: Tell me the measured Slope normalized repl1 of Nc1nc(-c2ccc(F)cc2)cs1 , please.
Response: 0.5707

Request: Tell me the measured Slope normalized repl1 of Nc1cc(-c2ccccc2)[nH]n1 , please.
Response: 0.628

Request: Tell me the measured Slope normalized repl1 of O=C(O)c1nc(-c2ccccc2)cs1 , please.
Response: 0.6376

Request: Tell me the measured Slope normalized repl1 of O=C(O)c1cc(-c2cccs2)on1 , please.
Response: 0.6515

Request: Tell me the measured Slope normalized repl1 of NCc1ccc(-c2csnn2)cc1 , please.
Response: 0.8322

Request: Tell me the measured Slope normalized repl1 of CC(C)(C)OC(=O)CNC(=O)c1cc(-c2cccs2)on1 , please.
Response: 0.2181

Request: Tell me the measured Slope normalized repl1 of Cc1ccc(-c2csc(N)n2)cc1C , please.
Response: 0.5569

Request: Tell me the measured Slope normalized repl1 of Nc1nc(-c2ccc(Cl)c(Cl)c2)cs1 , please.
Response: 0.2615
